Origin of measurements: patent US20090252727A1

# assayed_target: T1, rat glucagon receptor (rat, UniProt P30082 28-485)
# T1 construct: Cloned receptor expressed in 293HEK cells; also called rat GluR; rat GlucR
# T1 sequence (P30082 28-485): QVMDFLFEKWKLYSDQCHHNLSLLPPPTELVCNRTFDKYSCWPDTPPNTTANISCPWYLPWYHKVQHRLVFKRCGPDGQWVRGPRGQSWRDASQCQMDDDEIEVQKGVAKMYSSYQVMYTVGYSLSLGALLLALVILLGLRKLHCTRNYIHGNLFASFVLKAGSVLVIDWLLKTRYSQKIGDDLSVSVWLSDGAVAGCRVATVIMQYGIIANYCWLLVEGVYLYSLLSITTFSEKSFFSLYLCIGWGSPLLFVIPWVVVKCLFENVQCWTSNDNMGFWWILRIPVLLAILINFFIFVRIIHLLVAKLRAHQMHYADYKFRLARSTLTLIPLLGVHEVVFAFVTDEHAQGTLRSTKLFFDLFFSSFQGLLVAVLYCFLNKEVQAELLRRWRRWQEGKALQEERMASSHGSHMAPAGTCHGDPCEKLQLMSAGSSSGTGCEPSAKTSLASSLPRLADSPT
# protocol_notes: competition with [125I]glucagon, SPA, membranes of 293HEK cells expressing the receptor
recorded_endpoint: Ki

binder	Ki
Antibody of example 7 (Ab7) (antibody, human IgG4 S228P, kappa, F234A L235A, V domains shown, Humanized full antibody with kappa light chain and modified human IgG4 Fc) VH: QVQLQESGPGLVKPSETLSLTCTVSGDDITSGYHEWIRQPPGKGLEWIGYISYSGSTSYSPSLKSRVTISVDTSKNQFSLKLSSVTAADTAVYYCARPPAYYGFGPYALDYWGQGTLVTVSS VL: DIQMTQSPSSLSASVGDRVTITCSASSSVSYIHWYQQKPGKAPKLLIYTTSYLAHGVPSRFSGSGSGTDFTLTISSLQPEDFATYYCQQRSTLPPTFGGGTKVEIKR	< 50 nM

Input line: Any idea what Ki was measured for Antibody of example 6 (Ab6) (antibody, human IgG4 S228P, kappa, F234A L235A, V domains shown, Humanized full antibody with kappa light chain and modified human IgG4 Fc) VH: QVQLQESGPGLVKPSETLSLTCTVSGDDITSGYHDWIRQPPGKGLEWIGYISYSGSTYYSPSLKSRVTISVDTSKNQFSLKLSSVTAADTAVYYCARPPAYYGFGPYALDYWGQGTLVTVSS VL: DIQMTQSPSSLSASVGDRVTITCSASSSVSYIHWYQQKPGKAPKLLIYTTSYLAHGVPSRFSGSGSGTDFTLTISSLQPEDFATYYCQQRSTLPPTFGGGTKVEIKR ?
Output line: < 50 nM

Input line: Any idea what Ki was measured for Fab fragment of antibody example 2 (Fab, V domains shown, Expressed in E. coli; Fab = VL+CL and VH+CH1 (Fc absent); also called Fab of Ab2; not shown: His tag) VH: QVQLQESGPGLVKPSETLSLTCTVSGDDITSGYWNWIRQPPGKGLEWIGYISYSGSTYYIPSLKSRVTISVDTSKNQFSLKLSSVTAADTAVYYCARPPGYYGFGPYAMDYWGQGTLVTVSS VL: DIQMTQSPSSLSASVGDRVTITCSYSSSVSYMHWYQQKPGKAPKLLIYTTSNLAHGVPSRFSGSGSGTDFTLTISSLQPEDFATYYCQQRSTLPPTFGGGTKVEIKR ?
Output line: < 50 nM
